- target.of.assay: Sodium-dependent serotonin transporter (Homo sapiens)
- Sequence (P31645 whole entry): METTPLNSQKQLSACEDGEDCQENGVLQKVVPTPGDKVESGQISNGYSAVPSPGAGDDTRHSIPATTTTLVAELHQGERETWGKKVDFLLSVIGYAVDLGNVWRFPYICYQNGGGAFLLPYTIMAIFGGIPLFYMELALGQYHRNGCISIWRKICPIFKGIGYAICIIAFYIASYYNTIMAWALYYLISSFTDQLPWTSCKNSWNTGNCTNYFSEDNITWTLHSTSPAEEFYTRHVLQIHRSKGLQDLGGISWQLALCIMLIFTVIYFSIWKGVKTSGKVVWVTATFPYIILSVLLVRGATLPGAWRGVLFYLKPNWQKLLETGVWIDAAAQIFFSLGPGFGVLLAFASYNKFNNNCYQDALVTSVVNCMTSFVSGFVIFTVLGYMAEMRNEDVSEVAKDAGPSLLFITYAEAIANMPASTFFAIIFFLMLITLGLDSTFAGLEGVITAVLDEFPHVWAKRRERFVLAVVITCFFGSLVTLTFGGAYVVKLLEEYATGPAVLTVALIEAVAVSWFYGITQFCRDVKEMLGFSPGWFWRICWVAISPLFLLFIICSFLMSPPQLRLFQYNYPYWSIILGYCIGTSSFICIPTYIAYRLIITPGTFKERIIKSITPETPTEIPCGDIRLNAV
- procedure.details: Binding affinity for serotonin transporter
pKi: −log10 of the molar value.
Output yes (1) for pKi not less than 8; output no (0) otherwise.

COc1cc2c(cc1OC)C1=NO[C@@H](CN3CCN(Cc4ccc5ncccc5c4)CC3)[C@@H]1CN2 no (0)
COCC(=O)Oc1ccc2c(c1)OC[C@@H]1C2=NO[C@H]1CN1CCN(C/C(C)=C/c2ccccc2)CC1 yes (1)
C/C(=C\c1ccccc1)CN1CCN(C[C@@H]2ON=C3c4ccc(O)cc4OC[C@H]32)CC1 yes (1)
COc1ccc2c(c1)C=C[C@@H]1C2=NO[C@H]1CN1CCN(Cc2ccc3ccccc3c2)CC1 yes (1)
C=CC(=O)Oc1ccc2c(c1)OC[C@@H]1C2=NO[C@H]1CN1CCN(C/C(C)=C/c2ccccc2)CC1 no (0)
COc1cc2c(cc1OC)C1=NO[C@@H](CN3CCN(CCOc4ccc(F)cc4)CC3)[C@@H]1CN2 no (0)
C/C(=C\c1ccccc1)CN1CCN(C[C@@H]2ON=C3c4ccc(OC(=O)C5CC5)cc4OC[C@H]32)CC1 no (0)
CCNC(=O)N1C[C@@H]2C(=NO[C@H]2CN2CCN(C/C=C/c3ccccc3)CC2)c2ccccc21 no (0)
CCOC(=O)N1C[C@@H]2C(=NO[C@H]2CN2CCN(C/C=C/c3ccccc3)CC2)c2ccccc21 yes (1)
COCCOc1ccc2c(c1)OC[C@@H]1C2=NO[C@H]1CN1CCN(C/C(C)=C/c2ccccc2)CC1 yes (1)

Reported pKi reaches at least 8 for COc1cc2c(cc1OC)C1=NO[C@@H](CN3CCN(Cc4ccc(Cl)cc4)CC3)[C@@H]1CN2 ?
no (0)

Is it the case that C/C(=C\c1ccccc1)CN1CCN(C[C@@H]2ON=C3c4ccc(OC5CCCC5)cc4OC[C@H]32)CC1 has pKi reaching or exceeding 8?
no (0)

* * *

- Test system: Rattus norvegicus
- procedure.details: Effective dose for PCA-induced 5-HT depletion was determined by oral administration
- Assay type: functional
readout.type: ED50
Your answer should be a number followed by the unit of measure.

COc1cc2c(cc1OC)C1=NO[C@@H](CN3CCN(C/C=C/c4ccccc4)CC3)[C@@H]1CO2 1.1 mg/kg
COc1cc2c(cc1OC)C1=NO[C@@H](CN3CCN(Cc4ccc5ccccc5c4)CC3)[C@@H]1CO2 2.6 mg/kg
COc1cc2c(cc1OC)C1=NO[C@@H](CN3CCN(C/C(C)=C/c4ccccc4)CC3)[C@@H]1CO2 3.8 mg/kg

Please find the next compound below.
Can you look up ED50 on Rattus norvegicus for COc1cc2c(cc1OC)C1=NO[C@@H](CN3CCN(C/C=C(\C)c4ccccc4)CC3)[C@@H]1CO2 ?
3.5 mg/kg

* * *

- target.of.assay: Sodium-dependent serotonin transporter (Homo sapiens)
- procedure.details: Binding affinity for serotonin transporter
Here, each record is paired with measured Ki data.
Respond with the bare value in nM.

CC(=O)N1C[C@@H]2C(=NO[C@H]2CN2CCN(CCC/C=C/c3ccccc3)CC2)c2ccccc21 61
C(=C\c1ccccc1)/CN1CCN(C[C@@H]2ON=C3c4ccccc4NC[C@H]32)CC1 84
COc1cc2c(cc1OC)C1=NO[C@@H](CN3CCN(C/C(C)=C/c4ccccc4)CC3)[C@@H]1CN2 8.9

--- query ---
Which Ki value is on record for COc1ccc2c(c1)C=C[C@@H]1C2=NO[C@H]1CN1CCN(C/C=C/c2ccccc2)CC1 ?
7.3
